- assayTarget: Histone-lysine N-methyltransferase EHMT2 (Homo sapiens)
- assayRemarks: qHTS Assay for Inhibitors of Histone Lysine Methyltransferase G9a; also: nearly all actives have a fitted effect of over 75% in size
- conditionLabel: G9a H3K9 monomethylation, AlphaScreen, 2 h; series mostly up to 59 µM
The whole screen tested about 350,000 compounds, of which about 31,000 (8.9%) were called active. Roughly 15% stayed inconclusive and do not appear here. Calls follow the shape of the dose curve; as a rule, active = well fitted inhibition curve with a large enough effect; inconclusive = small, poorly fitted or top-dose-only effect; inactive = no such curve, though single readings can be large or run the other way. What follows is part of a selection rich in actives, with near analogues and random picks from the rest.
Give one outcome, nothing more. List: TRUE (active), FALSE (inactive)

Cc1cc(C)nc(Nc2ncn[nH]2)n1 = FALSE

Name the outcome recorded for COCCCNCCOCCOc1ccc(Cl)cc1Br in the assay.
TRUE

Name the outcome recorded for COc1ccc(/C=N/Nc2cc(N3CCOCC3)nc(C)n2)c(OC)c1 in the assay.
FALSE

Name the outcome recorded for CCn1c(COc2cccc(OC)c2)nnc1SCC(=O)N1CCOCC1 in the assay.
FALSE

Name the outcome recorded for CN(C)CCOCCOc1ccc(Cl)c2ccccc12 in the assay.
TRUE

Name the outcome recorded for COc1cccc(OCc2nnc3n2N=C(c2ccccc2)C(CC(=O)O)S3)c1 (stereo unspecified) in the assay.
TRUE

Name the outcome recorded for CC(=O)N1CCc2cc(S(=O)(=O)NC3CCCCC3)ccc21 in the assay.
FALSE

Name the outcome recorded for CCOc1ccc(Nc2oc(/C=C/c3ccc(F)cc3)nc2C#N)cc1 in the assay.
FALSE

Name the outcome recorded for COc1ccc(C2CC(c3ccccc3)=NN2C(=O)COC(=O)COc2ccccc2)cc1 (stereo unspecified) in the assay.
FALSE

Name the outcome recorded for COc1ccc(OCc2nnc3n2N=C(c2ccccc2)C(CC(=O)O)S3)cc1 (stereo unspecified) in the assay.
TRUE

Name the outcome recorded for Cc1cc(C)nc(NC(=O)C(C)N2C(=O)c3ccccc3C2=O)n1 (stereo unspecified) in the assay.
FALSE
